Provide the recorded percent cross reactivity for the entries that follow.
System: antibodies raised against an immunogen having the structure shown in FIG. 29
assayText: Fluorescence polarization immunoassay cross-reactivity in drug-free normal human urine, tracer of FIG. 30
Format: binding, sheep
assaySetup: 200 ng/mL added
One number for each entry, in %.

Here's what some known entries look like.
compound: CCC1(c2ccccc2)C(=O)NC(=O)NC1=O
numericValue: 70
//
compound: CCC1(CCC(C)C)C(=O)NC(=O)NC1=O
numericValue: 43
//
compound: CCC(C)C1(CC)C(=O)NC(=O)NC1=O (stereo not drawn)
numericValue: 224
//
compound: CCCC(C)C1(CC)C(=O)NC(=O)NC1=O (stereo not drawn)
numericValue: 65
//
compound: C=CCC1(C(C)CC)C(=O)NC(=O)NC1=O (stereo not drawn)
numericValue: 265
//
compound: C=CCC1(C(C)CCC)C(=O)NC(=O)NC1=O (stereo not drawn)
numericValue: 100

Provide the reported percent cross reactivity of each entry below, same order.
1. C=CCC1(CC(=C)Br)C(=O)NC(=O)NC1=O
2. C=CCC1(C(C)C)C(=O)NC(=O)NC1=O
3. C=CCC1(CC(C)C)C(=O)NC(=O)NC1=O

94
62
113

###

System: antibodies raised against an immunogen having the structure shown in FIG. 28
assayText: Fluorescence polarization immunoassay cross-reactivity in drug-free normal human urine, tracer of FIG. 5
Format: binding, sheep
assaySetup: 10 μg/mL added
Provide the recorded amount of the test compound found for the entries that follow.
Answers are plain numbers, in ng/mL.

Here's what some known entries look like.
molecule: O=C1NC(=O)C(c2ccccc2)(c2ccccc2)N1
unitOfMeasure: ng/mL
amount of the test compound found: 320
--
molecule: O=C1NC(=O)C(c2ccccc2)(c2ccc(O)cc2)N1 (centres unmarked) [p-Hydroxy phenytoin]
unitOfMeasure: ng/mL
amount of the test compound found: 340

# evaluate next
Please report amount of the test compound found with antibodies raised against an immunogen having the structure shown in FIG. 28 for item CCC1(c2ccccc2)CCC(=O)NC1=O (centres unmarked) [Glutethimide] . 180

###

Provide the recorded amount of the test compound found in the resulting human urine for the entries that follow.
System: antibodies raised against an immunogen having the structure shown in FIG. 28
assayText: Fluorescence polarization immunoassay cross-reactivity in drug-free normal human urine, tracer of FIG. 5
Type: binding, sheep
assaySetup: 200 ng/mL added to drug-free urine; secobarbital standard
Give bare numbers, in ng/mL.

Here's what some known entries look like.
compound: C=CCC1(CC(C)C)C(=O)NC(=O)NC1=O
numericValue: 201

compound: C=CCC1(C(C)CC)C(=O)NC(=O)NC1=O (stereo not drawn)
numericValue: 180

compound: CCC1(c2ccccc2)C(=O)NC(=O)NC1=O
numericValue: 210

Provide the reported amount of the test compound found in the resulting human urine of each entry below, same order.
1. CCCC(C)C1(CC)C(=O)NC(=O)NC1=O (stereo not drawn)
2. C=CCC1(C(C)CCC)C(=O)NC(=O)NC1=O (stereo not drawn)
3. CCC1(CCC(C)C)C(=O)NC(=O)NC1=O

210
200
310

###

Tested on: antibodies raised against an immunogen having the structure shown in FIG. 28
assayText: Fluorescence polarization immunoassay cross-reactivity in drug-free normal human urine, tracer of FIG. 5
Assay type: binding, sheep
assaySetup: 200 ng/mL added
Provide the recorded factor which overestimates or underestimates the compound assayed for for the entries that follow.
Answers are plain numbers.

Here's what some known entries look like.
compound: C=CCC1(C(C)CCC)C(=O)NC(=O)NC1=O (stereo not drawn)
numericValue: 1.00
--
compound: CCC1(c2ccccc2)C(=O)NC(=O)NC1=O
numericValue: 1.05
--
compound: C=CCC1(C(C)CC)C(=O)NC(=O)NC1=O (stereo not drawn)
numericValue: 0.90

Provide the reported factor which overestimates or underestimates the compound assayed for of each entry below, same order.
1. C=CCC1(CC(C)C)C(=O)NC(=O)NC1=O
2. CCCC(C)C1(CC)C(=O)NC(=O)NC1=O (stereo not drawn)
3. CCC1(CCC(C)C)C(=O)NC(=O)NC1=O

1.00
1.05
1.55

Values compiled from patent US6472227B1.
